src = ChEMBL document CHEMBL4145449

Target system: Cystic fibrosis transmembrane conductance regulator (Homo sapiens, UniProt P13569, F508DEL)
Sequence (P13569 as listed by the source): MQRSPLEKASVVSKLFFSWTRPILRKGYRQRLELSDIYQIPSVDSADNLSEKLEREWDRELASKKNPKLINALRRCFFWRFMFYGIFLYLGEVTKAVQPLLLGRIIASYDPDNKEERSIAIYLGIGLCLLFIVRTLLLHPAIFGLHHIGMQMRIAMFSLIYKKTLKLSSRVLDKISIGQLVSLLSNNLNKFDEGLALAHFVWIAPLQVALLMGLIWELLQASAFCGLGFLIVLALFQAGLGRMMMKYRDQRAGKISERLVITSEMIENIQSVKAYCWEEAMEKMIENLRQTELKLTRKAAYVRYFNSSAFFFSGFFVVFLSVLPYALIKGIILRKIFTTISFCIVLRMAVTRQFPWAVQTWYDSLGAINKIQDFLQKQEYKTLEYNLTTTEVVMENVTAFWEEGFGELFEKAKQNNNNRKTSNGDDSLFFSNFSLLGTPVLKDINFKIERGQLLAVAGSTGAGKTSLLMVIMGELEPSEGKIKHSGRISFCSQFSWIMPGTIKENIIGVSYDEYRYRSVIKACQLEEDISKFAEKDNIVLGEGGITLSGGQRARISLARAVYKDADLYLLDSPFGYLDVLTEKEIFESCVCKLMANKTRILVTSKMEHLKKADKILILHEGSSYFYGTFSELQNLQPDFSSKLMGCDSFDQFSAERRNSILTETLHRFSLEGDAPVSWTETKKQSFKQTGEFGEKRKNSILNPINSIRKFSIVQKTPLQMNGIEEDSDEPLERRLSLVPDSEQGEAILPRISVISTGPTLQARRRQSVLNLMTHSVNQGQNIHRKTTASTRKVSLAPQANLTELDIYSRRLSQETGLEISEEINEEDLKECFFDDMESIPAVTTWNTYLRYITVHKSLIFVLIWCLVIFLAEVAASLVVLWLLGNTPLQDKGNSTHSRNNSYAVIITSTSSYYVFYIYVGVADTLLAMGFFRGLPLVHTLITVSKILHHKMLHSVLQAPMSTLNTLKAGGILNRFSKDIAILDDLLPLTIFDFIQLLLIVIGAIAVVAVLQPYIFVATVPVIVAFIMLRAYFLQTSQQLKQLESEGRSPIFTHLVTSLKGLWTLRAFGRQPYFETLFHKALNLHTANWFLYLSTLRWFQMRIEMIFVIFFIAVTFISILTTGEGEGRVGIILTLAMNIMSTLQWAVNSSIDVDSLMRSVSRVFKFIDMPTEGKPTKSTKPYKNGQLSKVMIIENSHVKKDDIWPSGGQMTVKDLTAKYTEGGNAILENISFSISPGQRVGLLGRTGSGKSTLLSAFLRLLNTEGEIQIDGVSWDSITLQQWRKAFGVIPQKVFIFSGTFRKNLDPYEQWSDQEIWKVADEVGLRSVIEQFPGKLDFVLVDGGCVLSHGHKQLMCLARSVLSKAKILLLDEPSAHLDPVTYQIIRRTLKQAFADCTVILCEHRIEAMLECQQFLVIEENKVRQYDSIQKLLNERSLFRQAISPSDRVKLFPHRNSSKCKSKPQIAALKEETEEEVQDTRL
Run description: Corrector activity at CFTR F508-del mutant (unknown origin)
Assay endpoint: EC50 (µM)

1: O=C(Nc1ncc(Cc2ccccc2Cl)s1)C(c1ccccc1)c1ccccc1
2: COc1cccc(C(=O)NCCNc2nc3cc(C)cc(C)c3cc2C#N)c1
Enquiry: Please choose the item with the lower EC50 value from this pair: 1 and 2 Label of pick, please.
Return: 2
(2: 1.5 µM, 1: 16 µM)

###

Target system: Cystic fibrosis transmembrane conductance regulator (Homo sapiens, UniProt P13569, F508DEL)
Run description: Corrector activity at CFTR F508-del mutant (unknown origin) expressed in human CFBE41o cells harboring HS-YFP preincubated for 24 hrs followed by forskolin/genistein stimulation for 30 mins by fluorescence assay
Type: cell-based
Test conditions: read-out: EC50
pEC50: −log10 of the molar value.
Assay endpoint: pEC50

[[record]]
chem_smiles = "CCOC(=O)c1sc(NC(=O)C2(c3ccc4c(c3)OCO4)CC2)nc1-c1cccc(Cl)c1"
assay_endpoint = "pEC50"
quantitative_result = 6.26

[[record]]
chem_smiles = "O=C(Nc1nc(-c2cccc(F)c2)cs1)C1(c2ccc3c(c2)OCO3)CC1"
assay_endpoint = "pEC50"
quantitative_result = 5.68

[[record]]
chem_smiles = "Cc1sc(NC(=O)C2(c3ccc4c(c3)OC(F)(F)O4)CC2)nc1-c1cccc(Cl)c1"
assay_endpoint = "pEC50"
quantitative_result = 5.27

[[record]]
chem_smiles = "O=C(Nc1nc(-c2ccc(O)cc2)cs1)C1(c2ccc3c(c2)OCO3)CC1"
assay_endpoint = "pEC50"
quantitative_result = 5.74

[[record]]
chem_smiles = "O=C(Nc1nc(-c2ccc(I)cc2)cs1)C1(c2ccc3c(c2)OCO3)CC1"
assay_endpoint = "pEC50"
quantitative_result = 5.92

[[record]]
chem_smiles = "CCOC(=O)c1sc(NC(=O)C2(c3ccc4c(c3)OCO4)CC2)nc1-c1ccc(Cl)cc1"
assay_endpoint = "pEC50"
quantitative_result = 6.05

[[record]]
chem_smiles = "Cc1sc(NC(=O)C2(c3ccc4c(c3)OCO4)CC2)nc1-c1ccc(O)cc1"
assay_endpoint = "pEC50"
quantitative_result = 5.41

[[record]]
chem_smiles = "Cc1sc(NC(=O)C2(c3ccc4c(c3)OCO4)CC2)nc1-c1cccc(Cl)c1"
assay_endpoint = "pEC50"
quantitative_result = 5.64

[[record]]
chem_smiles = "Cc1sc(NC(=O)C2(c3ccc4c(c3)OC(F)(F)O4)CC2)nc1-c1ccc(Br)cc1"
assay_endpoint = "pEC50"
quantitative_result = 5.42

[[record]]
chem_smiles = "CSc1cccc(NC(=O)C2(c3ccc4c(c3)OCO4)CC2)c1"
assay_endpoint = "pEC50"
quantitative_result = 5.10


a: Cc1sc(NC(=O)C2(c3ccc4c(c3)OCO4)CC2)nc1-c1ccc(Cl)cc1
b: O=C(Nc1nc(-c2ccc(O)cc2)cs1)C1(c2ccc3c(c2)OC(F)(F)O3)CC1
c: O=C(Nc1nc(-c2ccc(Br)cc2)cs1)C1(c2ccc3c(c2)OCO3)CC1
Enquiry: Hi! Can you put these in order of pEC50, lowest number first? Reply: labels, ordered per the request.
Return: c, a, b
